Sourced from BigSolDB 2.1

# Condition Set: in isopropanol, 308.15 K
Measured Parameter: solubility (mole fraction)

1. Nc1ccc(Br)nn1 ... 0.0053

====

# Condition Set: in n-butanol, 303.15 K
Measured Parameter: solubility (mole fraction)

1. Nc1ccc(Br)nn1 ... 0.0062

====

# Condition Set: in water, 318.15 K
Measured Parameter: solubility (mole fraction)

1) Nc1ccc(Br)nn1 ... 4.6e-05

====

# Condition Set: in DMF, 288.15 K
Measured Parameter: solubility (mole fraction)

1. Nc1ccc(Br)nn1 ... 0.0144

====

# Condition Set: in isopropanol, 278.15 K
Measured Parameter: solubility (mole fraction)

1) Nc1ccc(Br)nn1 ... 0.00276
